- test_summary: Toxicological evaluation (with toxicokinetics) of rats administered for 21 consecutive days
- measurement_conditions: male, SD, rat, in vivo, po, 20 mg/kg/day, male, oral 20 mg/kg/day, Day 1
property: Cmax (µM)
Give a bare numeral; the unit µM is implied.

Return Cmax for the following molecule: Cn1cc(-c2cnc(CNc3nccn4c(-c5cc(F)cc(F)c5)cnc34)cn2)ccc1=O [Compound 2]
4.24

* * *

- test_summary: Toxicological evaluation (with toxicokinetics) of rats administered for 21 consecutive days
- measurement_conditions: female, SD, rat, in vivo, po, 20 mg/kg/day, female, oral 20 mg/kg/day, Day 1
property: Tmax (h)
Give a bare numeral; the unit h is implied.

Return Tmax for the following compound: Cn1cc(-c2cnc(CNc3nccn4c(-c5cc(F)cc(F)c5)cnc34)cn2)ccc1=O
8

Provenance of the data: patent US20240383906A1
